Assignment: determine reported protein stability index for the given sequences.
Test system: Saccharomyces cerevisiae
Assay: protein stability index of tFT-peptide fusion (C-terminal peptide) (PSI (0-1 scale)); higher = more stable (slower turnover)
Conditions: genetic background: das1 deletion; temperature: 30 C
Numbers only.

Recorded protein stability index, per entry:
Ask: Item: LKTTPCLTHWYN [YIR030W-A C-terminal 12 aa] Test system: Saccharomyces cerevisiae Read-out: protein stability index Value: ?
Reply: 0.699

Ask: Item: AQGKLIMKVEGF [AST2 C-terminal 12 aa] Test system: Saccharomyces cerevisiae Read-out: protein stability index Value: ?
Reply: 0.698

Ask: Item: CDEVVEHVKASA [PCM1 C-terminal 12 aa] Test system: Saccharomyces cerevisiae Read-out: protein stability index Value: ?
Reply: 0.708

Ask: Item: IEVGNGASVLIQ [TRS65 C-terminal 12 aa] Test system: Saccharomyces cerevisiae Read-out: protein stability index Value: ?
Reply: 0.692

Hello, I would appreciate it if you could give protein stability index for each entry below.
1. EVSQYAAFFQDD [CTM1 C-terminal 12 aa]
2. DEDVDFLKVQVF [HAP4 C-terminal 12 aa]

Reply:
1. 0.719
2. 0.709
